The values you see were collected from patent US12180192B2.

- TGT: THR alpha (Homo sapiens, UniProt P10827)
- Construct: expressed in transfected cells; host or cells: HEK293T (ATCC CRL-3216)
- Sequence (P10827 1-410 isoform P10827-2): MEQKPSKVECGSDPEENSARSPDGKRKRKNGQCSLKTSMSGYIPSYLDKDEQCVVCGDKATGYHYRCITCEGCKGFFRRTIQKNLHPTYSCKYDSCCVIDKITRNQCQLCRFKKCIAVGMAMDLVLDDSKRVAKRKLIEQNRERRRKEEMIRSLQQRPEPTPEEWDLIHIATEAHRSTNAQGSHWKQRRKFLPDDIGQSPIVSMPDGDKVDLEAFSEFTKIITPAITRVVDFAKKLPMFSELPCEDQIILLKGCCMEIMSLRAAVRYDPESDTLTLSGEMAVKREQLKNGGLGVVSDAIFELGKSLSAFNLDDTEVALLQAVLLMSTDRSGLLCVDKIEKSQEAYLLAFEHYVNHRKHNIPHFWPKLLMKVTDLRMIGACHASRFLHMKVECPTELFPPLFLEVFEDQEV
- Sequence (P19793 whole entry partner): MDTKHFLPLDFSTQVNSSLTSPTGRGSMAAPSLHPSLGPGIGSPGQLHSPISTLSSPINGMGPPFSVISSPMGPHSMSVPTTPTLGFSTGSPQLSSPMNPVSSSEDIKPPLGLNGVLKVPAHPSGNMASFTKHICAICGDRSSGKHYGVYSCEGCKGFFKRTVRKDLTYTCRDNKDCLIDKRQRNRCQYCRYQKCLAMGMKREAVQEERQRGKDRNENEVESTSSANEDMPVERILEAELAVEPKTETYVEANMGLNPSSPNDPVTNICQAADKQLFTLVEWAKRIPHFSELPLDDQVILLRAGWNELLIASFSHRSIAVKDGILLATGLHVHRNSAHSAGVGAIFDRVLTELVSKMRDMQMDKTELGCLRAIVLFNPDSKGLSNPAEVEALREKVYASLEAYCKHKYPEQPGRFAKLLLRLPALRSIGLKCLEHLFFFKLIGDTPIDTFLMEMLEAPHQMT
- PROTOCOL_DETAILS: HEK293T THR alpha/RXR luciferase reporter assay (Assay 2)
- Format: cell-based
- ASSAY_SETUP: HEK-293T, Table 5; Assay 2; THRα; read-out: Activity category Assay 2 THRα (Emax)
A collection of compounds and their measured Emax

COMPOUND	TGT	Emax
Cc1ccc(-c2cc(=O)[nH]nc2Oc2c(Cl)cc(-n3nc(N)c(=O)[nH]c3=O)cc2Cl)cc1C [Compound 113]	THR alpha (Homo sapiens, UniProt P10827)	< 50%
N#Cc1nn(-c2cc(Cl)c(Oc3ccc4[nH]cc(CC5CC5)c4c3)c(Cl)c2)c(=O)[nH]c1=O [Compound 50]	THR alpha (Homo sapiens, UniProt P10827)	> 75%
CCCc1c[nH]c2ccc(Oc3c(Cl)cc(-n4nc(C#N)c(=O)[nH]c4=O)cc3Cl)cc12 [Compound 48]	THR alpha (Homo sapiens, UniProt P10827)	> 75%
Nc1nn(-c2cc(Cl)c(Oc3cc(C45CCC(C4)C5)c(=O)[nH]n3)c(Cl)c2)c(=O)[nH]c1=O [Compound 101]	THR alpha (Homo sapiens, UniProt P10827)	< 50%
CC(C)(C)c1cc(Oc2c(Cl)cc(-n3nc(N)c(=O)[nH]c3=O)cc2Cl)n[nH]c1=O [Compound 73]	THR alpha (Homo sapiens, UniProt P10827)	> 75%
N#Cc1nn(-c2cc(Cl)c(Oc3ccc4[nH]cc(Cc5ccccc5)c4c3)c(Cl)c2)c(=O)[nH]c1=O [Compound 46]	THR alpha (Homo sapiens, UniProt P10827)	< 50%
Nc1nn(-c2cc(Cl)c(Oc3n[nH]c(=O)cc3-c3ccc4c(c3)CCCO4)c(Cl)c2)c(=O)[nH]c1=O [Compound 115]	THR alpha (Homo sapiens, UniProt P10827)	< 50%
